target: HLA-A1 (A*0101) (Homo sapiens, UniProt P04439, A114D/A174V/A182V/D101N/D185E/E176A/E190D/L180R/Q94H/R68K/S129P/T187R/V100A/V91M/W191G); experiment: biochemical; assay type: binding
No end group written: not given here.
Readout Label: IC50 (nM)
I only need the number, in nM, no unit after it.

Reported IC50 for LSDALEIPY [Peptide 1549.41] : what is it?
12

Quick check: IC50 of LTDQLIHMHY [Peptide 9018.0032] ?
6.6

State the recorded IC50 for this entry: GLDDQLIHLY [Peptide 9018.0024]
11

I have this sequence here, FTSMPNPEGRY [Peptide 9012.0174] , and I need its recorded IC50.
10
